Values compiled from patent US4438117A.

# System: phenylquinone writhing
# measurement.description: Phenylquinone writhing test (analgesic activity)
# Assay type: in vivo, female white mice
# particulars: Mus musculus; oral in 1% methylcellulose, fasted mice, observed from 30 minutes after dosing for 10 minutes; effective analgesic dose for 50% of the mice; read-out: PQW ED50
Measured ED50, listed per entry for reference.
Provide the reading as a plain figure in mg/kg.

Example entries and their recorded answers appear below.
{"columns": ["molecule", "unit.descriptor", "ED50"],
 "data": [
  ["Fc1ccc(-c2cnc(SC(F)(F)C(F)F)nc2-c2ccc(F)cc2)cc1 [Example 4]", "mg/kg", 45],
  ["COc1ccc(-c2cnc(SC(F)(F)F)nc2-c2ccc(OC)cc2)cc1 [Example 6]", "mg/kg", 48],
  ["COc1ccc(-c2cnc(SC)nc2-c2ccc(OC)cc2)cc1 [Example 9]", "mg/kg", 108]
]}

Switching to the query record.
Which ED50 value is on record for COc1ccc(-c2nc(SC(F)(F)F)ncc2-c2ccc(Cl)cc2)cc1 [Example 7] ?
49
